Biological target: 11-beta-hydroxysteroid dehydrogenase 1 (Homo sapiens, UniProt P28845)
Sequence (P28845 whole entry): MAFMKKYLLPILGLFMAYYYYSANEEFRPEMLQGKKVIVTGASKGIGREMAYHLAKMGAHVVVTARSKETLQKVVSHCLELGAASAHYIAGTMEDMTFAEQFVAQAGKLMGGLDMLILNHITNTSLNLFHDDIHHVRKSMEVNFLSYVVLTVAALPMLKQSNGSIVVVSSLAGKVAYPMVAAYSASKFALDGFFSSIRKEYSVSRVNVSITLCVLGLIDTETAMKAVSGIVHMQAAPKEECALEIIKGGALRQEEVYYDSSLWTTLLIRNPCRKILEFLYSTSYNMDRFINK
Assay: Inhibition of human 11-beta HSD1 transfected in HEK293 cell microsomes assessed as decrease in [3H]cortisol generation using [3H]cortisone as substrate measured after 60 mins by scintillation proximity assay
Measured property: pIC50
Notebook: values listed as pIC50 are -log10 of the concentration (mol/L).

Some solved cases for reference:
[[record]]
item_smiles = "Cc1c(Cl)cccc1C(=O)N1CCC[C@H](c2nnc(-c3ccccc3)[nH]2)C1"
measured_property = "pIC50"
value_reported = 6.02

[[record]]
item_smiles = "O=C(c1ccccc1Cl)N1CCC[C@H](c2nc(-c3ccccc3)no2)C1"
measured_property = "pIC50"
value_reported = 6.07

[[record]]
item_smiles = "Cc1c(Cl)cccc1C(=O)N1CCC[C@H](n2nnc(-c3ccccc3)n2)C1"
measured_property = "pIC50"
value_reported = 6.23


Data request: If you can, please state the reported pIC50 value of O=C(C1CCCCCC1)N1CCC[C@H](c2nc(-c3ccccc3)no2)C1 .
Data returned: 5.83

Data request: What value of pIC50 has been recorded for this entry: O=C(C1CC1)N1CCC[C@H](c2nc(-c3ccccc3)no2)C1
Data returned: 7.04

###

Experiment: Oral bioavailability in rat at 6 mg/kg
Assay type: ADME, organism-based
Settings: in vivo
Measured property: bioavailability (%)
Write it as a number; the unit % goes unstated.

Data request: What bioavailability value was documented for this compound, Cc1c(Cl)cccc1S(=O)(=O)N1CCC[C@H](C(=O)NC2CCCCC2)C1 ?
Data returned: 8

###

Target: 11-beta-hydroxysteroid dehydrogenase 1 (Homo sapiens)
Test: Inhibition of human 11-beta HSD1 transfected in HEK293 cell microsomes assessed as decrease in [3H]cortisol generation using [3H]cortisone as substrate measured after 60 mins by scintillation proximity assay
The entries below are paired with their reported IC50.
Give the quantity in nM, number only.

[[record]]
item_smiles = "Cc1c(Cl)cccc1C(=O)N1CCC[C@H](c2nc(-c3ccccc3Br)no2)C1"
units_of_measure = "nM"
value_reported = 825


Data request: Need IC50 of Cc1c(Cl)cccc1C(=O)N1CCC[C@H](c2nc(-c3ccccc3Cl)no2)C1 , thanks.
Data returned: 277

###

The reader will find reported inhibition at 5 min, 10 µM values listed item by item below.
Target: CYP2D6 (Homo sapiens, UniProt P10635)
Sequence (P10635 whole entry): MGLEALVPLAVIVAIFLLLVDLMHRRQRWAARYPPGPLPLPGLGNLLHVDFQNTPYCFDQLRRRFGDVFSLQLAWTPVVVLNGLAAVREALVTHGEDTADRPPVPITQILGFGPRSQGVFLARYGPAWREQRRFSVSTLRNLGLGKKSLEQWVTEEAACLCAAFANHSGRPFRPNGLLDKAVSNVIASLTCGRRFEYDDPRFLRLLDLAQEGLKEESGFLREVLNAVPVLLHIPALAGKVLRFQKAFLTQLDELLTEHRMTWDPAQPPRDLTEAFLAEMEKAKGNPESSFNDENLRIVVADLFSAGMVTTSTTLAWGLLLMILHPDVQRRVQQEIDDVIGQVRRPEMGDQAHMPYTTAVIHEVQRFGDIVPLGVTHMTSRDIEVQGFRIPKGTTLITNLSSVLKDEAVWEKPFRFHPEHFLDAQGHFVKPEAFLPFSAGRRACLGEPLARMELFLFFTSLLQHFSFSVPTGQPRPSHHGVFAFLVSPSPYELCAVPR
Assay: Inhibition of CYP2D6 in human microsomes using dextrpmethorphan as substrate at 10 uM after 5 mins
Assay type: ADME, Microsome
Details: probe dextromethorphan (printed: dextrpmethorphan)
Note: unit % is implicit; provide only the numeric part.

Data request: # inhibition at 5 min, 10 µM lookup, item O=C(C1CCCCC1)N1CCC[C@H](c2nc(-c3ccccc3)no2)C1
Data returned: 12

Data request: Item Cc1c(Br)cccc1C(=O)N1CCC[C@H](c2nc(-c3ccccc3)no2)C1 has what recorded inhibition at 5 min, 10 µM?
Data returned: 0

Data request: What does the record list as inhibition at 5 min, 10 µM for Cc1c(Cl)cccc1S(=O)(=O)N1CCC[C@H](C(=O)NC2CCCCC2)C1 ?
Data returned: 34

###

Experiment: AUC (0 to t) in rat at 6 mg/kg, po
Assay type: ADME, organism-based, Plasma
Parameters: dose 6 mg/kg, route oral
Conditions: plasma
Measured property: AUC(0-t)

Data request: What value of measured AUC(0-t) is listed for Cc1c(Cl)cccc1S(=O)(=O)N1CCC[C@H](C(=O)NC2CCCCC2)C1 ?
Data returned: 0.188 µM·h
